- assay_text: Human HepG2 cell viability assay in 384 well format
- Type: toxicity, cell-based
- Parameters: dose 125 nL, time 70.5 hour; concentration not given beside the values
- study_conditions: HepG2 cells, read-out: Inhibition
Answer each item with its documented cytotoxicity at 70.5 h.
State the answer as a number, implicitly in %.

Record `CC(=O)NCCNCc1cn(CCN2CCSCC2)nc1C` . Reported cytotoxicity at 70.5 h: -5.7

Record CNc1cc(N2CCCC2CNCc2cccc(C(N)=O)c2)ncn1 (configuration not stated) . Reported cytotoxicity at 70.5 h: -2.53

Record Cc1noc(C)c1CN1CCCC1C(=O)OCc1ccccc1 (configuration not stated) . Reported cytotoxicity at 70.5 h: -10.7

Record CC(c1nc(C(C)(C)C)no1)N1CCN(Cc2ccc(C#N)cc2)CC1 (configuration not stated) . Reported cytotoxicity at 70.5 h: -1.19

Record `Cc1ccoc1C(=O)NCc1ccnc(OCC(F)(F)F)c1` . Reported cytotoxicity at 70.5 h: -3.36

Record O=C(c1cccc(Cl)c1Cl)N1CCN(CC(O)Cn2cccn2)CC1 (configuration not stated) . Reported cytotoxicity at 70.5 h: -2.95

Record COc1ccc2c(c1)OCC(Cc1cncc(N)c1)C2 (configuration not stated) . Reported cytotoxicity at 70.5 h: 8.44

Record CN(C)c1ncc(C2Nc3cc(Cl)ccc3C3=NCCCN32)cn1 (configuration not stated) . Reported cytotoxicity at 70.5 h: -5.74

Record `CC(C)NC(=O)CCN1CCC(C(=O)c2cc(F)ccc2F)CC1` . Reported cytotoxicity at 70.5 h: -7.21

Record `COc1ccc(CN2CC[C@@]3(O)CCCC[C@H]3C2)cc1C(=O)O` . Reported cytotoxicity at 70.5 h: 8.88

Record `Cc1ncsc1C(=O)NCCNC(=O)Cc1cccc(F)c1` . Reported cytotoxicity at 70.5 h: -6.49

Record CC(=O)Nc1nc(C(=O)N2CCCC2Cn2cccn2)cs1 (configuration not stated) . Reported cytotoxicity at 70.5 h: -0.875

###

- assay_text: Human HepG2 cell viability assay in 384 well format
- Type: toxicity, cell-based
- Parameters: dose 125 nL, time 70.5 hour; concentration not given beside the values
- study_conditions: HepG2 cells, read-out: Inhibition
Answer each item with its documented cytotoxicity at 70.5 h.
State the answer as a number, implicitly in %.

Record `CC(C)Cc1cc(NC(=O)c2cc(Cl)c[nH]2)n(C)n1` . Reported cytotoxicity at 70.5 h: -8.43

Record NC(=O)c1ccccc1Oc1cnc(C2CCCN2)cn1 (stereo unspecified) . Reported cytotoxicity at 70.5 h: -7.87

Record Cn1ncc(N2CCOC(CCNC(=O)NC(C)(C)C)C2)cc1=O (stereo unspecified) . Reported cytotoxicity at 70.5 h: 19.2

Record Cc1nn(C)c(N2CCOCC2)c1CNCC1CCCN1C (stereo unspecified) . Reported cytotoxicity at 70.5 h: -5.73

Record `CN(CCc1ccc2c(c1)CCO2)C1CCS(=O)(=O)CC1` . Reported cytotoxicity at 70.5 h: 16.1

Record O=C(NCCO)NC(c1ccccc1)c1ccc2c(c1)CCCO2 (stereo unspecified) . Reported cytotoxicity at 70.5 h: -12.9

Record `O=C(CN1CCCC1)Nc1c2c(cc3c1CCC3)CCC2` . Reported cytotoxicity at 70.5 h: -4.72

Record `CN(Cc1n[nH]c2c1CCC2)C(=O)CCc1cc2n(n1)CCCNC2` . Reported cytotoxicity at 70.5 h: -12.8

Record `CC(C)(C)c1ccc(OCC(N)=O)c(CN2C[C@H]3C[C@H](O)C[C@H]3C2)c1` . Reported cytotoxicity at 70.5 h: -7.47

Record Cc1ccncc1NC(=O)C1CSc2ncc(C)c(=O)n2C1 (stereo unspecified) . Reported cytotoxicity at 70.5 h: 18.9

Record CN1C(=O)CC(C(=O)O)C12CCN(Cc1cc(F)ccc1Cl)CC2 (stereo unspecified) . Reported cytotoxicity at 70.5 h: -9.93

Origin of values: ChEMBL document CHEMBL3507680
